B1: Unconventional myosin-Ie, residues 1051 to 1108; numbered along this chain, Q12965 (parent)
chain: PQVPQCKALYAYDAQDTDELSFNANDIIDIIKEDPSGWWTGRLRGKQGLFPNNYVTKI

# Variants of: B1
# experiment-summary: abundance fitness (aPCA) (normalised: wild type 0, dead -1); higher = more abundant; growth selection in yeast, the domain comes from the species named
# test-parameters: Homo sapiens
readout-name: abundance fitness
Quick one: just the number, no unit, thanks!

Known results for variants:
# mutation-code, abundance fitness
data = [
    ("G45E", -0.058),
    ("I27N", -0.233),
]

Dear colleague, I am looking for the recorded abundance fitness of the following variant: `E19P` -0.925

Subsequent entry: `T17F` -0.287

Ok, now `D26M` -0.86

How about this variant: `A11G` -0.186

Param item: `K46M` 0.054

Then `T56S` ? -0.042

Moving on to `K46C` -0.099
